- TARGET_ENTITY: T1, extracellular domain of human CD73 protein, C-terminus polyhistidine-tagged (human, UniProt P21589 27-547)
- T1 construct: also the immunogen; also called CD73-ECD; human CD73-ECD
- T1 sequence: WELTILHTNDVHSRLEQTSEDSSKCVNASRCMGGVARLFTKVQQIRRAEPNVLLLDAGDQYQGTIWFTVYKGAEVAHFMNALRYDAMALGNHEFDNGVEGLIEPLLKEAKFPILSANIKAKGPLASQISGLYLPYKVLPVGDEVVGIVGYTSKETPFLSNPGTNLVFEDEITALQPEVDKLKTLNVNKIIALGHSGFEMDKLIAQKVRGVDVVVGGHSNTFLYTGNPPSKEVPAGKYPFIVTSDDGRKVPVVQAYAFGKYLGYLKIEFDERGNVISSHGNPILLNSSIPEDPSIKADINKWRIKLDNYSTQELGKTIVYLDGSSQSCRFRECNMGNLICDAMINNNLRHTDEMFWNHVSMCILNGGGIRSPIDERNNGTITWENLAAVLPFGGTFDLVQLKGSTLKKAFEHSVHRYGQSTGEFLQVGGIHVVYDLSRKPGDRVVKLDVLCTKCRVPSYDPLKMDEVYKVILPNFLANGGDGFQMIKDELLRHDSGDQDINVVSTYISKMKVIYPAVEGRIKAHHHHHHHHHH
- PROTOCOL_TEXT: ELISA on CD73-ECD, 0.8 µL supernatant of antibody expression, second of two readings; PBS 0.19, 0.18
PROPERTY_LABEL: ELISA reading (not named on the sheet)

[[record]]
binder = "chimeric nanobody 5-E11 (Fc fusion, Human-alpaca chimeric antibody (VHH on hIgG1 Fc); Only the VHH is tied to the tested molecule; also called original antibody 5-E11) VHH: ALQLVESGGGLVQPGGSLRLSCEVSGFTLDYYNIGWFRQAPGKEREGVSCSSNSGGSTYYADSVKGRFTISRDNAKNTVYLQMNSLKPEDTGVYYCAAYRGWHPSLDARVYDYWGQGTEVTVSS"
property_label = "ELISA reading (not named on the sheet)"
quantitative_result = 4.16

[[record]]
binder = "5-E11 derived antibody 5-E11AS (VHH, not shown: a dimerising Fc or GST) VHH: ALQLVESGGGLVQPGGSLRLSCEVSGFTLDYYNIGWFRQAPGKEREGVSCSSASGGSTYYADSVKGRFTISRDNAKNTVYLQMNSLKPEDTGVYYCAAYRGWHPSLDARVYDYWGQGTEVTVSS"
property_label = "ELISA reading (not named on the sheet)"
quantitative_result = 4.08

[[record]]
binder = "5-E11 derived antibody 5-E11QS (VHH, not shown: a dimerising Fc or GST) VHH: ALQLVESGGGLVQPGGSLRLSCEVSGFTLDYYNIGWFRQAPGKEREGVSCSSQSGGSTYYADSVKGRFTISRDNAKNTVYLQMNSLKPEDTGVYYCAAYRGWHPSLDARVYDYWGQGTEVTVSS"
property_label = "ELISA reading (not named on the sheet)"
quantitative_result = 4.08

[[record]]
binder = "5-E11 derived antibody 5-E11GS (VHH, not shown: a dimerising Fc or GST) VHH: ALQLVESGGGLVQPGGSLRLSCEVSGFTLDYYNIGWFRQAPGKEREGVSCSSGSGGSTYYADSVKGRFTISRDNAKNTVYLQMNSLKPEDTGVYYCAAYRGWHPSLDARVYDYWGQGTEVTVSS"
property_label = "ELISA reading (not named on the sheet)"
quantitative_result = 4.11

